The reported numbers originate from ChEMBL document CHEMBL3885861.

organism: Rattus norvegicus; assay: Open TG-GATES - Regimen: Single; format: toxicity, organism-based, Sprague-Dawley; design: regimen Single, gender Male, age 6 weeks; settings: in vivo, po, 300 mg/kg, 3 h, tissue Blood, route gavage, dose level Middle
Measured parameter: Eos (%)
Numeric only. Scale: %

COC(=O)C1=C(C)NC(C)=C(C(=O)OC)C1c1ccccc1[N+](=O)[O-] [NIFEDIPINE] | 0.6
CN/C(=N/CCSCc1nc[nH]c1C)NC#N [CIMETIDINE] | 0.8
O=C(OC[C@H]1O[C@@H](OC(=O)c2cc(O)c(O)c(OC(=O)c3cc(O)c(O)c(O)c3)c2)[C@H](OC(=O)c2cc(O)c(O)c(OC(=O)c3cc(O)c(O)c(O)c3)c2)[C@@H](OC(=O)c2cc(O)c(O)c(OC(=O)c3cc(O)c(O)c(O)c3)c2)[C@@H]1OC(=O)c1cc(O)c(O)c(OC(=O)c2cc(O)c(O)c(O)c2)c1)c1cc(O)c(O)c(OC(=O)c2cc(O)c(O)c(O)c2)c1 [TANNIC ACID] | 1
CNC(=C[N+](=O)[O-])NCCSCc1ccc(CN(C)C)o1 [RANITIDINE] | 1.2

Okay, now this compound:
Data request: Sample Cc1nnc2n1-c1ccc(Cl)cc1C(c1ccccc1Cl)=NC2 [TRIAZOLAM] — what was its Eos?
Data returned: 1
